Target: human A2B receptors (Homo sapiens, UniProt P29275)
Construct: expressed in transfected cells; host or cells: HEK293
Sequence (P29275 1-332): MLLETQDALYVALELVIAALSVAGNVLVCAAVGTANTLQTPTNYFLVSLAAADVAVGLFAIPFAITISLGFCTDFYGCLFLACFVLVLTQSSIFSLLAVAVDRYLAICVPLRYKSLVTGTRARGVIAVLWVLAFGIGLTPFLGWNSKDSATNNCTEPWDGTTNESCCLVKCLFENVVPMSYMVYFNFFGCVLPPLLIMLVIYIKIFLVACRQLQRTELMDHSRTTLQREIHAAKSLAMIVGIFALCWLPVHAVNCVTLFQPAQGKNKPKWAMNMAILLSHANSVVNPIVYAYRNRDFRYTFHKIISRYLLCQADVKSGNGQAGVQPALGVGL
Test: Functional human A2B receptor activity, recombinant HEK293 cells, cAMP (HTRF)
Type: cell-based
Conditions: read-out: A2B (Category)
For each of the compounds below, state its IC50.

(Q) Which measured IC50 belongs to O=C(c1cc2c(cn1)c(-c1coc3ccccc13)nn2CCF)N1[C@@H]2CC[C@H]1C[C@@H](O)C2 , tested on human A2B receptors (Homo sapiens, UniProt P29275)?
(A) < 0.1 µM

(Q) Also, COCn1nc(-c2cnc3ccc(F)cn23)c2cnc(C(=O)N3CCCCCC3)cc21 please.
(A) < 1 µM

(Q) Also, O=C(c1cc2c(cn1)c(-c1cnc3c(F)cccn13)nn2CC(F)(F)F)N1CCCCCC1 please.
(A) < 0.1 µM

(Q) Also, O=C(c1cc2c(cn1)c(-c1cnc3ccc(F)cn13)nn2CC(F)(F)F)N1CC2CCC(C1)O2 please.
(A) < 1 µM

(Q) Also, CC(C)(C)OC(=O)N1CC2CC1CN2C(=O)c1cc2c(cn1)c(-c1cnc3c(F)cc(F)cn13)nn2CC(F)(F)F (stereo not drawn) please.
(A) < 0.1 µM

(Q) Also, O=C(c1cc2c(cn1)c(-c1cnc3c(F)cc(F)cn13)nn2CC(F)(F)F)N1[C@@H]2CC[C@H]1C[C@@H](O)C2 please.
(A) < 0.1 µM

(Q) Also, C[C@@H]1COC[C@H](C)N1C(=O)c1cc2c(cn1)c(-c1cnc3c(F)cc(F)cn13)nn2CC(F)(F)F please.
(A) < 1 µM

(Q) Also, O=C(c1cc2c(cn1)c(-c1cnn3ccccc13)nn2CC(F)(F)F)N1[C@@H]2CC[C@H]1C[C@@H](O)C2 please.
(A) < 0.1 µM

(Q) Also, O=C(c1cc2c(cn1)c(-c1cnc3ccccn13)nn2CC(F)(F)F)N1[C@@H]2CC[C@H]1C[C@@H](O)C2 please.
(A) < 1 µM

(Q) Also, O=C(c1cc2c(cn1)c(-c1cnc3c(F)cc(F)cn13)nn2CC(F)(F)F)N1CCC(O)CC1 please.
(A) < 0.1 µM

(Q) Also, CS(=O)(=O)Cn1nc(-c2cnn3ccccc23)c2cnc(C(=O)N3CCCOCC3)cc21 please.
(A) < 0.1 µM

(Q) Also, CC(C)CC1CN(C(=O)c2cc3c(cn2)c(-c2cnc4c(F)cc(F)cn24)nn3CC(F)(F)F)CCC1O (stereo not drawn) please.
(A) < 1 µM

(Q) Also, O=C(c1cc2c(cn1)c(-c1cnc3ccc(O)cn13)nn2CC(F)(F)F)N1[C@@H]2CC[C@H]1C[C@@H](O)C2 please.
(A) < 1 µM

(Q) Also, O=C(c1cc2c(cn1)c(-c1cnc3c(F)cc(F)cn13)nn2CC(F)(F)F)N1CC2CCC(C2)C1 please.
(A) < 0.1 µM

(Q) Also, CC1(CO)CCN(C(=O)c2cc3c(cn2)c(-c2cnc4c(F)cc(F)cn24)nn3CC(F)(F)F)CC1 please.
(A) < 1 µM
